endpoint.label: melting point

[[record]]
compound = "CCc1nc(-c2ccccc2)cc(=O)n1CCNC(=O)c1ccc(OC(C)(C)C(=O)O)cc1"
result_value = "210 °C"

[[record]]
compound = "CCc1nc(-c2ccccc2)cc(=O)n1CCNc1ccc(SC(CC)C(=O)O)cc1 (centres unmarked)"
result_value = "118 °C"

[[record]]
compound = "CCc1nc(-c2ccccc2)cc(=O)n1CCSc1ccc(OCC(=O)O)cc1"
result_value = "164 to 166 °C"


Sample CCCCCCCN(C(=O)Cn1c(CC)nc(-c2ccccc2)cc1=O)c1ccc(OC(C)(CC)C(=O)O)cc1 (centres unmarked) ; melting point observed: 52 to 54 °C

Sample CCc1nc(-c2ccccc2)cc(=O)n1CC(=O)Nc1ccc(SC(C(=O)O)C(C)C)cc1 (centres unmarked) ; melting point observed: 195 to 200 °C

Sample `CCCCCCCN(C(=O)Cn1c(CC)nc(-c2ccccc2)cc1=O)c1ccc(OC(C)(C)C(=O)O)cc1` ; melting point observed: 68 to 70 °C

Sample `CCc1nc(-c2ccccc2)cc(=O)n1CC(=O)Nc1ccc(OC(C)(C)C(=O)O)cc1` ; melting point observed: 120 °C

Sample CCCC(Oc1ccc(OCCn2c(CC)nc(-c3ccccc3)cc2=O)cc1)C(=O)OCC (centres unmarked) ; melting point observed: 80 to 82 °C

Sample CCCCCCCN(C(=O)Cn1c(CC)nc(-c2ccccc2)cc1=O)c1ccc(OC(CCC)C(=O)O)cc1 (centres unmarked) ; melting point observed: 48 to 50 °C

Measured values drawn from patent US7348334B2 for this set.
